system under test: human CD3 on cells (human PBMC; Jurkat TCR/CD3 NFAT reporter cells) (human, UniProt P07766 23-207; P04234 22-171; P09693 23-182)
Sequence (P07766 23-207, chain 1 of 3): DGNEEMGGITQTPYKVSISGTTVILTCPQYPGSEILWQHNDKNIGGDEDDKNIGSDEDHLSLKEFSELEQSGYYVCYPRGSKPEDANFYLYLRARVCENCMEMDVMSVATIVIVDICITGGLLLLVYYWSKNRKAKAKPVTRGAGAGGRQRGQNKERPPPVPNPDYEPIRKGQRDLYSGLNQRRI
Sequence (P04234 22-171, chain 2 of 3): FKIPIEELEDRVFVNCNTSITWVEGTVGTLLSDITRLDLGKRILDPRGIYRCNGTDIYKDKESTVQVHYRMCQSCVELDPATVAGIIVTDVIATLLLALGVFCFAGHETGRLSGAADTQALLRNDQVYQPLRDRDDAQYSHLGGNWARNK
Sequence (P09693 23-182, chain 3 of 3): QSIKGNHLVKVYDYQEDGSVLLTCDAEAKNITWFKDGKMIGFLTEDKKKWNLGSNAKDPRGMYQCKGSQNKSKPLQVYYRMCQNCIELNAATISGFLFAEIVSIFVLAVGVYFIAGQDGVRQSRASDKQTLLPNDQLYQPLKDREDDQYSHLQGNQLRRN
experiment: cell-based or functional assay

- binder: "Hu153A6B1-8 (antibody, V domains shown, humanized mAb) VH: EVQLQESGPGLVKPSETLSLTCTVSGGSISSYNIHWVRQPPGKGLEWIGRIRYNGDTSYNSALKSRVTISRDTSKNQFSLKLSSVTAADTAVYYCARGPYGGSREPLFDYWGQGTMVTVSS VL: DIQMTQSPSSLSASVGDRVTITCKTSQNINKYLNWFQQKPGKAPKLLIYTTNNLQTGIPSRFSGSGSGTDFTLTISSLQPEDFATYYCLQHGSGYTFGQGTKLEIK"
  % of SP34, %: 70.5
- binder: "Hu155A9B1-13 (antibody, V domains shown, humanized mAb) VH: EVQLQESGPGLVKPSETLSLTCTVSGGSISSYNVHWIRQPPGKGLEWIGRVRYNGDTSYNSALKSRVTISVDTSKNQFSLKLSSVTAADTAVYYCARGPYGGSSEPLFDYWGQGTMVTVSS VL: DIQMTQSPSSLSASVGDRVTITCKASQNINKYLNWFQQKPGKAPRLLIYTTNNLQTGIPSRFSGSGSGTDFTLTISSLQPEDFATYFCLQHNSGYTFGQGTKLEIK"
  % of SP34, %: 18.4
- binder: "SP34 monoclonal antibody (antibody, human IgG1, lambda, N297A, V domains shown, also called SP34 (Biointron, B6762)) VH: EVQLVESGGGLVQPKGSLKLSCAASGFTFNTYAMNWVRQAPGKGLEWVARIRSKYNNYATYYADSVKDRFTISRDDSQSILYLQMNNLKTEDTAMYYCVRHGNFGNSYVSWFAYWGQGTLVTVSA VL: QAVVTQESALTTSPGETVTLTCRSSTGAVTTSNYANWVQEKPDHLFTGLIGGTNKRAPGVPARFSGSLIGDKAALTITGAQTEDEAIYFCALWYSNLWVFGGGTKLTVLG"
  % of SP34, %: 100
- binder: "Hu155A9B1-5 (antibody, V domains shown, humanized mAb; also called 155z5) VH: EVQLQESGPGLVKPSETLSLTCTVSGFSISSYNVHWVRQPPGKGLEWMGRVRYNGDTSYNSALKSRLTISRDTSKNQASLKLSSVTAADTAVYYCTRGPYGGSSEPLFDYWGQGTMVTVSS VL: DIQMTQSPSSLSASVGDRVTITCKASQNINKYLNWYQQKPGKAPRLLIYTTNNLQTGVPSRFSGSGSGTDFTLTISSLQPEDFATYYCLQHNSGYTFGQGTKLEIK"
  % of SP34, %: 79.9
- binder: "Hu155A9B1-6 (antibody, V domains shown, humanized mAb) VH: EVQLQESGPGLVKPSETLSLTCTVSGFSLTSYNVHWVRQPPGKGLEWMGRVRYNGDTSYNSALKSRLTISRDTSKNQASLKLSSVTAADTAVYYCTRGPYGGSSEPLFDYWGQGTMVTVSS VL: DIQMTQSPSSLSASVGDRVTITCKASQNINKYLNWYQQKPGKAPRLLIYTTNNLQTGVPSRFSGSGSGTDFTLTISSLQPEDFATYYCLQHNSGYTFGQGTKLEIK"
  % of SP34, %: 84.8

Data credit: patent US20240417469A1
